- System: Escherichia coli TOP10
- testProtocol: shrunken log2 fold change of peptide-encoding DNA abundance (4.5 h post-induction vs induction); higher = less antimicrobial activity (less host growth inhibition)
- testParameters: time post-induction: 4.5 h; library: site-saturation at positions 5, 18, 19, 20
Parameter: shrunken log2 fold change. Scope: all listed entries.
Just the number.

For orientation, consider the following solved cases.
Ask: Tell me the measured shrunken log2 fold change of RRIRGRPPRLPRPRPRPLCLPRP , please.
Result: 0.437

Ask: Tell me the measured shrunken log2 fold change of RRIRIRPPRLPRPRPRPGVEPRP , please.
Result: -0.0594

Ask: Tell me the measured shrunken log2 fold change of RRIRWRPPRLPRPRPRPWALPRP , please.
Result: -0.158

Continuing:
Ask: Tell me the measured shrunken log2 fold change of RRIRARPPRLPRPRPRPKTKPRP , please.
Result: 0.0731

Ask: Tell me the measured shrunken log2 fold change of RRIRTRPPRLPRPRPRPAGSPRP , please.
Result: -0.000597

Ask: Tell me the measured shrunken log2 fold change of RRIRVRPPRLPRPRPRPIYWPRP , please.
Result: -0.0757

Ask: Tell me the measured shrunken log2 fold change of RRIRDRPPRLPRPRPRPYKRPRP , please.
Result: 0.000522

Ask: Tell me the measured shrunken log2 fold change of RRIRNRPPRLPRPRPRPLGEPRP , please.
Result: -0.0638

Ask: Tell me the measured shrunken log2 fold change of RRIRGRPPRLPRPRPRPNRCPRP , please.
Result: 0.422

Ask: Tell me the measured shrunken log2 fold change of RRIRNRPPRLPRPRPRPRPIPRP , please.
Result: 0.333

Ask: Tell me the measured shrunken log2 fold change of RRIRLRPPRLPRPRPRPQFGPRP , please.
Result: -0.291

Ask: Tell me the measured shrunken log2 fold change of RRIRTRPPRLPRPRPRPNIIPRP , please.
Result: -1.01

Ask: Tell me the measured shrunken log2 fold change of RRIRQRPPRLPRPRPRPLIMPRP , please.
Result: -0.0338

Ask: Tell me the measured shrunken log2 fold change of RRIRCRPPRLPRPRPRPPLEPRP , please.
Result: 0.186

Ask: Tell me the measured shrunken log2 fold change of RRIRSRPPRLPRPRPRPPMHPRP , please.
Result: 0.25

Ask: Tell me the measured shrunken log2 fold change of RRIRQRPPRLPRPRPRPYCQPRP , please.
Result: -0.0564

----------
- Test system: Escherichia coli TOP10
- testProtocol: shrunken log2 fold change of peptide-encoding DNA abundance (4.5 h post-induction vs induction); higher = less antimicrobial activity (less host growth inhibition)
- testParameters: time post-induction: 4.5 h; library: site-saturation at positions 5, 18, 19, 20
# shrunken log2 fold change >= 0.1 gives true, anything below gives false

The examples below pair each entry with its known result.
Ask: Does RRIRKRPPRLPRPRPRPHQGPRP have a reported shrunken log2 fold change of at least 0.1?
Result: false

Ask: Does RRIRYRPPRLPRPRPRPCLQPRP have a reported shrunken log2 fold change of at least 0.1?
Result: false

Continuing:
Ask: Does RRIRFRPPRLPRPRPRPTCHPRP have a reported shrunken log2 fold change of at least 0.1?
Result: false

Ask: Does RRIRKRPPRLPRPRPRPLCNPRP have a reported shrunken log2 fold change of at least 0.1?
Result: true

Ask: Does RRIRDRPPRLPRPRPRPMMRPRP have a reported shrunken log2 fold change of at least 0.1?
Result: true

----------
- Tested on: Escherichia coli TOP10
- testProtocol: shrunken log2 fold change of peptide-encoding DNA abundance (4.5 h post-induction vs induction); higher = less antimicrobial activity (less host growth inhibition)
- testParameters: time post-induction: 4.5 h; library: site-saturation at positions 5, 18, 19, 20
endpoint: shrunken log2 fold change

For orientation, consider the following solved cases.
Ask: What shrunken log2 fold change appears in the records for this sequence with Escherichia coli TOP10? RRIRKRPPRLPRPRPRPYEFPRP
Result: 0.101

Ask: What shrunken log2 fold change appears in the records for this sequence with Escherichia coli TOP10? RRIRLRPPRLPRPRPRPKHFPRP
Result: -0.494

Ask: What shrunken log2 fold change appears in the records for this sequence with Escherichia coli TOP10? RRIRTRPPRLPRPRPRPSPAPRP
Result: 0.133

Read the next record carefully.
Ask: What shrunken log2 fold change appears in the records for this sequence with Escherichia coli TOP10? RRIRLRPPRLPRPRPRPHIYPRP
Result: -0.297

----------
Parameter: shrunken log2 fold change. Scope: all listed entries.
- System: Escherichia coli TOP10
- testProtocol: shrunken log2 fold change of peptide-encoding DNA abundance (4.5 h post-induction vs induction); higher = less antimicrobial activity (less host growth inhibition)
- testParameters: time post-induction: 4.5 h; library: site-saturation at positions 5, 18, 19, 20
Just the number.

For orientation, consider the following solved cases.
Ask: Tell me the measured shrunken log2 fold change of RRIRWRPPRLPRPRPRPVPPPRP , please.
Result: 0.372

Ask: Tell me the measured shrunken log2 fold change of RRIRNRPPRLPRPRPRPMAVPRP , please.
Result: -0.0402

Ask: Tell me the measured shrunken log2 fold change of RRIRVRPPRLPRPRPRPIAVPRP , please.
Result: 0.0926

Read the next record carefully.
Ask: Tell me the measured shrunken log2 fold change of RRIRFRPPRLPRPRPRPQVQPRP , please.
Result: -0.0485

----------
- System: Escherichia coli TOP10
- testProtocol: shrunken log2 fold change of peptide-encoding DNA abundance (4.5 h post-induction vs induction); higher = less antimicrobial activity (less host growth inhibition)
- testParameters: time post-induction: 4.5 h; library: site-saturation at positions 5, 18, 19, 20
Parameter: shrunken log2 fold change. Scope: all listed entries.
Just the number.

Ask: What shrunken log2 fold change appears in the records for this sequence with Escherichia coli TOP10? RRIRGRPPRLPRPRPRPGWSPRP
Result: 0.758

Read the next record carefully.
Ask: What shrunken log2 fold change appears in the records for this sequence with Escherichia coli TOP10? RRIRTRPPRLPRPRPRPDRGPRP
Result: -0.252

----------
Parameter: shrunken log2 fold change. Scope: all listed entries.
- Test system: Escherichia coli TOP10
- testProtocol: shrunken log2 fold change of peptide-encoding DNA abundance (4.5 h post-induction vs induction); higher = less antimicrobial activity (less host growth inhibition)
- testParameters: time post-induction: 4.5 h; library: site-saturation at positions 5, 18, 19, 20
Just the number.

For orientation, consider the following solved cases.
Ask: What shrunken log2 fold change appears in the records for this sequence with Escherichia coli TOP10? RRIRMRPPRLPRPRPRPDCYPRP
Result: -0.15

Ask: What shrunken log2 fold change appears in the records for this sequence with Escherichia coli TOP10? RRIRPRPPRLPRPRPRPWDAPRP
Result: 0.0508

Continuing:
Ask: What shrunken log2 fold change appears in the records for this sequence with Escherichia coli TOP10? RRIRPRPPRLPRPRPRPVWIPRP
Result: 0.0152

----------
- Test system: Escherichia coli TOP10;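 further: peptides expressed intracellularly from a pBAD plasmid library in pooled LB shake-flask culture, induced with 0.3% L-arabinose, DNA abundance read by NGS, three biological replicates, DESeq2 with apeglm shrinkage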
- testProtocol: shrunken log2 fold change of peptide-encoding DNA abundance (4.5 h post-induction vs induction); higher = less antimicrobial activity (less host growth inhibition)
- testParameters: time post-induction: 4.5 h; library: site-saturation at positions 5, 18, 19, 20
Parameter: shrunken log2 fold change. Scope: all listed entries.
Just the number.

For orientation, consider the following solved cases.
Ask: Tell me the measured shrunken log2 fold change of RRIRMRPPRLPRPRPRPEARPRP , please.
Result: 1.76

Ask: Tell me the measured shrunken log2 fold change of RRIRRRPPRLPRPRPRPHPAPRP , please.
Result: 0.583

Ask: Tell me the measured shrunken log2 fold change of RRIRCRPPRLPRPRPRPWEVPRP , please.
Result: 0.431

Ask: Tell me the measured shrunken log2 fold change of RRIRPRPPRLPRPRPRPSVTPRP , please.
Result: -0.385

Ask: Tell me the measured shrunken log2 fold change of RRIRMRPPRLPRPRPRPEWLPRP , please.
Result: 0.056

Ask: Tell me the measured shrunken log2 fold change of RRIRERPPRLPRPRPRPCLCPRP , please.
Result: -0.134

Ask: Tell me the measured shrunken log2 fold change of RRIRIRPPRLPRPRPRPCQRPRP , please.
Result: -0.268

Ask: Tell me the measured shrunken log2 fold change of RRIRQRPPRLPRPRPRPERYPRP , please.
Result: -0.0565

Ask: Tell me the measured shrunken log2 fold change of RRIRERPPRLPRPRPRPGAAPRP , please.
Result: 1.82

Ask: Tell me the measured shrunken log2 fold change of RRIRQRPPRLPRPRPRPNWVPRP , please.
Result: 0.00521

Continuing:
Ask: Tell me the measured shrunken log2 fold change of RRIRPRPPRLPRPRPRPNYIPRP , please.
Result: -0.739

Ask: Tell me the measured shrunken log2 fold change of RRIRARPPRLPRPRPRPWDEPRP , please.
Result: 0.379
